Form field: growth (one value per entry).
# Test system: HS 578T breast
# EXPERIMENT DESCRIPTION: NCI-60 one-dose screen, 48 h (100 = growth as untreated, 0 = no growth, -100 = all killed)
# MEASUREMENT PARAMETERS: 10 µM unless noted
Compounds without any hit were thinned out: in the full panel of roughly 83,000, 20% have a hit.

| MOLECULE | growth [%] |
| --- | --- |
| CNC(=O)c1cc(Oc2ccc(NC(=O)Nc3ccc(Cl)c(OC(F)(F)F)c3)c(F)c2)ccn1 | 51.9 |
| C=CC(COC(c1ccccc1)(c1ccccc1)c1ccccc1)N(CC)CC (centres undefined) | 85.7 |
| Cn1c(NCCc2ccc(O)c(O)c2)nc2c1c(=O)n(Cc1ccc(Br)cc1)c(=O)n2C | 95.3 |
| COc1ccc(-c2nnc(SCC(=O)c3ccc(Cl)cc3)o2)cc1 | 109 |

----------
# System: RXF 393 renal
# EXPERIMENT DESCRIPTION: NCI-60 one-dose screen, 48 h
# MEASUREMENT PARAMETERS: 10 µM unless noted
Compounds without any hit were thinned out: in the full panel of roughly 83,000, 20% have a hit. Active and inactive are the calls of the source. How the source made its calls: active means growth percent below 10; inactive means the rest.
Possible outcomes: 1 for active, 0 for inactive

| MOLECULE | ASSIGNED LABEL |
| --- | --- |
| O=C1CSC(=S)N1CCc1ccc(O)cc1 | 0 |
| O=C(COc1ccc(-c2nc3cc(Cl)c(Cl)cc3[nH]2)cc1)N=Nc1c(O)[nH]c2ccccc12 | 1 |
| Cn1cc(C(=O)c2nc(-c3c[nH]c4ccc(Br)cc34)no2)c2cc(F)ccc21 | 0 |
| c1ccc(Cn2cc(-c3nc4ccccc4s3)c3cccnc32)cc1 | 0 |
| CC1=C[C@H]2c3c(c(O)c(O)c4oc5cc(O)ccc5c(=O)c34)[C@H](c3cc(O)c(O)c4oc5cc(O)ccc5c(=O)c34)[C@H]2C(C)(C)C1 | 0 |
| CCN(CC)CCCCNc1c2ccc(Cl)cc2nc2ccc(OC)cc12 | 1 |
| O=c1cc(/C(=C2/C=CC=N2)c2ccc[nH]2)c2cc(Cl)ccc2o1 | 1 |
| COc1cccc(-c2nn(C(C)(C)C)cc2-c2ccnc(NCCCNS(=O)(=O)c3ccc(C)cc3)c2)c1 | 0 |
| COc1cc(-c2nn(C)nc2-c2cc3ccccc3s2)cc(OC)c1OC | 0 |
| NC(=NCCCOc1ccc(Cl)cc1)Nc1ccc(C(F)(F)F)cc1 | 0 |
| COc1ccc(C2CC(c3ccc4ccccc4c3)=NN2/C=C2\SC(=S)N(NC(=O)Cc3ccccc3Nc3c(Cl)cccc3Cl)C2=O)cc1 (stereo unspecified) | 1 |
| CCOC(=O)n1cc(-c2nonc2-c2cn(C)c3ncccc23)c2cc(F)ccc21 | 0 |
| C=C1c2nc3ccccc3n2C=C(c2ccc(OC)cc2)N1Cc1ccccc1 | 0 |
| COc1ccc(-c2nn(-c3ccc(Cl)cc3)cc2-c2nc3ccccc3[nH]2)cc1 | 0 |
| O=C1NC(=Nc2ccc(O)cc2)S/C1=C\c1cccc(Cl)c1 | 0 |
| N#CCCN=Nc1c(O)[nH]c2ccc(F)cc12 | 0 |

----------
# System: A498 renal
# EXPERIMENT DESCRIPTION: NCI-60 one-dose screen, 48 h
# MEASUREMENT PARAMETERS: 10 µM unless noted
Compounds without any hit were thinned out: in the full panel of roughly 83,000, 20% have a hit. Calls of active or inactive are those of the source. The calls were made as follows: active = growth percent below 10; inactive = the rest.
Possible outcomes: active, inactive

| COMPOUND | ASSIGNED LABEL |
| --- | --- |
| CC1CCNC(C)C1 (configuration not stated) | inactive |
| O=C1c2cccc3cccc(c23)C(=O)N1CCCCN1CCN(CCCCOc2ccc(-c3nc4ccc(N5CCOCC5)cc4[nH]3)cc2)CC1 | inactive |
| c1ccc(-c2c(-c3ccccc3)[n+](Cc3ccc4ccccc4c3)c(-c3ccc(-c4nc5ccccc5s4)cc3)n2Cc2ccc3ccccc3c2)cc1 | active |
| Cn1cc(C(=O)c2nc(-c3c[nH]c4ccc(F)cc34)no2)c2cc(F)ccc21 | inactive |
| COc1ccc(CN2c3ccccc3Oc3ccccc32)cc1O | inactive |
| Cc1cc(N2CCN(c3ccnc4cc(Cl)ccc34)CC2)nc(N2CCOCC2)n1 | inactive |
| C[n+]1ccccc1/C=C/c1ccc2cccc(O)c2n1 | inactive |
| CCOC(=O)C(C)(C#N)C1C=CCCC1 (configuration not stated) | inactive |
| COc1ccc(C2C(C#N)=C(N)Oc3n[nH]c(-c4cccs4)c32)cc1I (configuration not stated) | inactive |
| CC(C)C1=C[C@@]23CC[C@@H]4[C@](C)(CCC[C@@]4(C)C(=O)N4CCCNCC4)[C@H]2C[C@@H]1[C@H]1C(=O)CCC(=O)[C@H]13 | inactive |
| COc1cccc(/C=N/NC(=O)c2ccccc2Nc2ccnc(C(F)(F)F)c2)c1O | active |
| O=C(N=Nc1c(O)[nH]c2ccc(Br)cc12)c1cc(-c2ccccc2)on1 | inactive |
| Nc1ccc(-c2cc3c(NCc4ccccc4)ncnc3s2)cc1 | inactive |
| O=C1CC(=NCC(=O)n2c(-c3ccccc3)nc3ccccc32)NN1 | inactive |
| COc1ccc(C(=S)N2CCN(c3cccc(Cl)c3)CC2)cc1 | inactive |
| COc1ccc(Nc2nc(SC)nc(-c3cccc([N+](=O)[O-])c3)c2C#N)cc1 | inactive |
| C=CC(=O)Nc1cccc(-c2nc(SC)nc(NCc3ccccc3)c2C#N)c1 | active |
| C=C(C)C1CC(O)C2(C)CCCC3C2C1CC(C)C3(C)CC/C(C)=C/C(O)C1CCC(=O)c2c(OC)cc(OC)cc21 (configuration not stated) | active |
| CCCCN1CCCn2c1nc1c2c(=O)n(CCC)c(=O)n1CCC | inactive |
| Oc1ccc(N=Cc2ccccc2O)cc1 | inactive |
| O=C(CN1CCCCC1)Nc1ccc2oc(=O)ccc2c1 | inactive |
| Cc1cc(C)nc(SC2=C(Nc3ccc(O)cc3)C(=O)N(Cc3ccccc3)C2=O)n1 | inactive |
| O=C1c2cc3c(cc2-c2c1c1cc(F)c(F)cc1c(=O)n2CCCn1ccnc1)OCO3 | active |
| Cc1ccc(/C=C2\SC(=S)N(CC(=O)NCCCN3CCOCC3)C2=O)cc1 | inactive |
| O=C(N(c1ccccc1)c1ccccc1)n1ccc2nc(Cl)nc(Cl)c21 | inactive |
| COc1ccc(-n2nc(C)c3c(Nc4ccc(NC(=O)Nc5c(Cl)cccc5Cl)cc4)ncnc32)cc1 | inactive |
| N#Cc1c(-c2ccc(Cl)cc2)nc(NN=Cc2ccco2)nc1N1CCOCC1 | active |

----------
# Test system: SN12C renal
# EXPERIMENT DESCRIPTION: NCI-60 one-dose screen, 48 h
# MEASUREMENT PARAMETERS: 10 µM unless noted
The panel holds about 83,000 compounds, 20% with a hit somewhere; the sample as a whole holds those more often. Calls of active or inactive are those of the source. The calls were made as follows: active = growth percent below 10; inactive = the rest.
Possible outcomes: true (active), false (inactive)

| COMPOUND | ASSIGNED LABEL |
| --- | --- |
| COc1ccc(SC2c3cc(OC)c(OC)cc3Oc3nc(N)c(C#N)c(N)c32)cc1 (centres undefined) | true |
| CCN=C1C=CC(=C(c2ccc(N)cc2)c2ccc(N(CC)CC)c(C)c2)C=C1 | true |
| O=C(N=Nc1c(O)[nH]c2ccccc12)c1cc(-c2ccccc2)on1 | false |
| O=S(=O)(Nc1ccc(Cl)c(F)c1)c1ccc(-c2cnc(C3CC3)o2)cc1 | false |

----------
# System: HCC-2998 colon
# EXPERIMENT DESCRIPTION: NCI-60 one-dose screen, 48 h
# MEASUREMENT PARAMETERS: 10 µM unless noted
Compounds without any hit were thinned out: in the full panel of roughly 83,000, 20% have a hit. Activity calls are given as the source filed them. Rule for the calls: active = growth percent below 10; inactive = the rest.
Possible outcomes: T for active, F for inactive

| COMPOUND | ASSIGNED LABEL |
| --- | --- |
| CC(C)(C)c1cc(C(C)(C)C)cc(S(=O)(=O)Nc2cc3ccccc3cc2C(=O)NCCN)c1 | T |
| COc1ccc(S(=O)(=O)N2CCCCCC2)cc1NC(=O)c1[nH]c(C)c2c1CCCCC2=O | F |
| Oc1ccccc1-c1nnc(CNc2ccc(Cl)cc2)o1 | F |
| COc1ccc(C(=O)/C=C/c2cccnc2Nc2cc(OC)c(OC)c(OC)c2)cc1 | F |
| Clc1ccc2c(NCCNc3nc(N4CCCCC4)nc4ccccc34)ccnc2c1 | F |
| Cc1ccc(NC(=O)/C=C/c2ccccc2)c(C(N)=O)c1 | F |
| Cc1ccc2oc(=O)cc(C3c4ccc([nH]4)C(c4cc(=O)oc5ccc(C)cc45)c4ccc([nH]4)C(c4cc(=O)oc5ccc(C)cc45)c4ccc([nH]4)C(c4cc(=O)oc5ccc(C)cc45)c4ccc3[nH]4)c2c1 (stereo not given) | T |
| O=C(CCN1C(=O)/C(=C/c2ccc(Cl)cc2)SC1=S)NCCCN1CCOCC1 | F |
| N#Cc1nnn(-c2ccc(S(N)(=O)=O)cc2)c1NCC(=O)c1ccccc1 | F |
| Cc1[nH]c(-c2ccc3cc[nH]c3c2)c2c1C(=O)CCCC2 | F |
| O=C(O)c1ccc(N=CC(=O)c2ccc(-c3ccccc3)cc2)cc1 | F |
| O=[N+]([O-])c1ccccc1/C=N\NC(=S)N/N=C/c1ccccc1[N+](=O)[O-] | F |
| C=CC(=O)Nc1cccc(Nc2nc(SC)nc(-c3cccc([N+](=O)[O-])c3)c2C#N)c1 | F |
| CC(=O)Nc1ccc(-n2c(O)c(/C=N/NC(=O)Cc3ccccc3Nc3c(Cl)cccc3Cl)sc2=S)cc1 | F |
| COc1ccc(-n2nc(C)c3c(Oc4ccc(NC(=O)Nc5c(Cl)cccc5Cl)cc4)ncnc32)cc1 | F |
| COc1ccc2c(c1)c(-c1nonc1-c1cn(C)c3ccccc13)cn2C | F |
| Nc1ccn(-c2ccc(Br)cc2)c(=O)n1 | F |
| CN(C)C(=S)N=Nc1c(O)[nH]c2ccccc12 | F |
| O=C(Cc1ccc(/C=C/C(=O)c2ncc[nH]2)cc1)Nc1ccc(F)cc1 | F |
| FC(F)(F)Oc1ccc2nc3nc4ccc[nH]c4cc3c2c1 | F |
| COc1cc(/C=C/c2cc(/C=C/c3ccc(O)c(OC)c3)n(-c3c(Cl)cccc3Cl)c(=O)n2)ccc1O | F |
| O=CNc1ccc2c(c1)Cc1cccc(NC=O)c1-2 | F |
| COc1cc(/C=C/C(=O)c2ccc(O)c(CN3CCN(c4cc5c(cc4F)c(=O)c(C(=O)O)cn5C4CC4)CC3)c2)cc(OC)c1OC | F |
| COc1cc(-c2nc3ccccc3[nH]2)ccc1OCc1nnc(-c2ccc(CC(C)C)cc2)o1 | F |
| C=CC(=O)Nc1cccc(-c2nc(SC)nc(Nc3cccc(OC)c3)c2C#N)c1 | F |
| COc1ccc(-c2nc3ccc(-c4nc5ccc(N6CCN(c7ccncc7)CC6)cc5[nH]4)cc3[nH]2)cc1OC | F |
| CC1=C[C@H]2c3c(c(O)c(O)c4oc5ccccc5c(=O)c34)[C@H](c3cc(O)c(O)c4oc5ccccc5c(=O)c34)[C@H]2C(C)(C)C1 | F |
| C#CCOc1ccc2ncnc(N3CCN(C(=O)CCl)CC3)c2c1 | F |
| CC[C@@H]1O[C@H](O[C@@H](c2cnc[nH]2)[C@H](NC(=O)c2nc([C@H](CC(N)=O)NC[C@@H](N)C(N)=O)nc(N)c2C)C(=O)N[C@H](C)[C@H](O)[C@H](C)C(=O)N[C@@H](C(=O)NCCc2nc(-c3nc(C(=O)NCCCCN=C(N)N)cs3)cs2)[C@@H](C)O)[C@H](O[C@@H]2O[C@H](CO)[C@H](O)[C@H](OC(N)=O)[C@@H]2O)[C@H](C)[C@@H]1C | F |
| CCc1c(Nc2ccccc2C)nc(N)[nH]c1=O | F |
